ASSAYED TARGET: E. coli CsgA (Escherichia coli)
Construct: made in house; host or cells: E. coli NEB 3016 slyD::kan, pET11d
Sequence (P28307 23-151): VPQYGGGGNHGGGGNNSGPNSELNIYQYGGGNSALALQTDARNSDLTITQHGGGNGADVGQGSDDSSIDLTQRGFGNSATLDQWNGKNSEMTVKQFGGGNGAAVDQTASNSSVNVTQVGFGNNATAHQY
PROCEDURE TEXT: In vitro ThioflavinT assay of CsgA aggregation (CsgA ThT Assay)
Type: biochemical
CONDITIONS: mean AUC as % of DMSO control; CsgA 10 μM, black plates; compound 100 μM; 1005 minutes
Procedure: In vitro ThioflavinT assay to determine effects of compounds on CsgA aggregation. […] Protein concentration was assessed by the NanoDrop technique (Thermo Scientific), as is familiar to one skilled in the art. […] During the assay, plates were shaken initially for 5 seconds and subsequently for 3 seconds prior to fluorescent readings. Readings were performed every 15 minutes for up to 1005 minutes. The effect of compounds on CsgA aggregation in the assay was determined with data from 0-17 hours. […]
MEASURE: CsgA ThT Assay (10 μM CsgA) % Control AUC at 1005 minutes, 100 μM (%)
State just the number; it will be interpreted in %.

Sample answers from the record:
>>> reported_measurement("CCN1CC(C(=O)O)n2c(c(-c3cccc(C(F)(F)F)c3)c(Cc3cccc4ccccc34)cc2=O)S1(=O)=O (single isomer, unassigned) [Compound 015b]")
23
>>> reported_measurement("CCCCN1CC(C(=O)O)n2c(c(-c3cccc(C(F)(F)F)c3)c(Cc3cccc4ccccc34)cc2=O)S1(=O)=O (single isomer, unassigned) [Compound 021b]")
99
>>> reported_measurement("Nc1c(Cc2cccc3ccccc23)c(-c2cccc(C(F)(F)F)c2)c2n(c1=O)C(C(=O)O)CS2 (single isomer, unassigned) [Compound 020b]")
16

// next item, CsgA ThT Assay (10 μM CsgA) % Control AUC at 1005 minutes, 100 μM requested
Prompt: Quick one: CsgA ThT Assay (10 μM CsgA) % Control AUC at 1005 minutes, 100 μM of CCCCCN1CC(C(=O)O)n2c(c(-c3cccc(C(F)(F)F)c3)c(Cc3cccc4ccccc34)cc2=O)S1(=O)=O (single isomer, unassigned) [Compound 025b] ?
Response: 107

====

ASSAYED TARGET: E. coli CsgA (Escherichia coli)
Construct: made in house; host or cells: E. coli NEB 3016 slyD::kan, pET11d
PROCEDURE TEXT: In vitro ThioflavinT assay of CsgA aggregation (CsgA ThT Assay)
Format: biochemical
CONDITIONS: read-out: CsgA ThT Assay (10 μM CsgA) % Control AUC at 1005 minutes, 25 μM, mean AUC as % of DMSO control; CsgA 10 μM, black plates; compound 25 μM; 1005 minutes
Procedure: In vitro ThioflavinT assay to determine effects of compounds on CsgA aggregation. […] Protein concentration was assessed by the NanoDrop technique (Thermo Scientific), as is familiar to one skilled in the art. […] During the assay, plates were shaken initially for 5 seconds and subsequently for 3 seconds prior to fluorescent readings. Readings were performed every 15 minutes for up to 1005 minutes. The effect of compounds on CsgA aggregation in the assay was determined with data from 0-17 hours. […]
So basically, if remaining activity at 25 µM comes in under 50% it's satisfied, and if it's 50% or more it's not satisfied.

Some entries whose results are on file:
>>> assigned_label("O=C(O)c1csc2c(-c3cccc(C(F)(F)F)c3)c(Cc3cccc4ccccc34)cc(=O)n12 [Compound 019]")
"not satisfied"
>>> assigned_label("O=C(O)[C@@H]1CS(=O)(=O)c2c(-c3cccc(C(F)(F)F)c3)c(Cc3cccc4ccccc34)cc(=O)n21 (single isomer, unassigned) [Compound 010a]")
"not satisfied"
>>> assigned_label("CN1CC(C(=O)O)n2c(c(-c3cccc(C(F)(F)F)c3)c(Cc3cccc4ccccc34)c(NCc3ccccc3)c2=O)S1(=O)=O (stereo not drawn) [Compound 071]")
"satisfied"
>>> assigned_label("O=C(O)[C@H]1CNS(=O)(=O)c2c(-c3cccc(C(F)(F)F)c3)c(Cc3cccc4ccccc34)cc(=O)n21 (single isomer, unassigned) [Compound 009b]")
"not satisfied"
>>> assigned_label("Nc1c(Cc2cccc3ccccc23)c(-c2cccc(C(F)(F)F)c2)c2n(c1=O)C(C(=O)O)CN(CCCCO)S2(=O)=O (stereo not drawn) [Compound 099]")
"not satisfied"
>>> assigned_label("CN(C)Cc1c(Cc2cccc3ccccc23)c(-c2cccc(C(F)(F)F)c2)c2n(c1=O)C(C(=O)O)CN(C)S2(=O)=O (stereo not drawn) [Compound 108]")
"satisfied"
>>> assigned_label("CCCN1CC(C(=O)O)n2c(c(-c3cccc(C(F)(F)F)c3)c(Cc3cccc4ccccc34)c(Br)c2=O)S1(=O)=O (stereo not drawn) [Compound 107]")
"satisfied"
>>> assigned_label("O=C(O)C1C[S+]([O-])c2c(-c3cccc(C(F)(F)F)c3)c(Cc3cccc4ccccc34)cc(=O)n21 (racemic) [Compound 027b]")
"not satisfied"
>>> assigned_label("O=C(O)C1CSc2c(-c3cccc(C(F)(F)F)c3)c(Cc3cccc4ccccc34)c(CO)c(=O)n21 (stereo not drawn) [Compound 057]")
"not satisfied"
>>> assigned_label("COc1ccc(CN2C[C@@H](C(=O)O)n3c(c(-c4cccc(C(F)(F)F)c4)c(Cc4cccc5ccccc45)cc3=O)S2(=O)=O)cc1 (single isomer, unassigned) [Compound 026a]")
"satisfied"

Prompt: # check: remaining activity at 25 µM < 50% for O=C(O)C1CN(CCCCCO)S(=O)(=O)c2c(-c3cccc(C(F)(F)F)c3)c(Cc3cccc4ccccc34)cc(=O)n21 (stereo not drawn) [Compound 086]
Response: satisfied

Prompt: # check: remaining activity at 25 µM < 50% for O=C(O)[C@@H]1CNS(=O)(=O)c2c(-c3cccc(C(F)(F)F)c3)c(Cc3cccc4ccccc34)cc(=O)n21 (single isomer, unassigned) [Compound 009a]
Response: satisfied
